Assay: yeast display, Sf9 membrane polyspecificity reagent, FACS + sequencing; frameworks hold sequencing errors
METRIC: polyreactivity (PSR sort gate)

Answered examples (5):
SEQ	polyreactivity (PSR sort gate)
QVHLVESGGGLVQAGGSLRLSCAASGRTFYANAMGWYIQAPGKERELVAAISTGGDGTYYADSVKGRFTISRDNAKNTVYLQMNSLKPEDTAVYYCAVRHRASGILYDYWGQGTQVTVSS	low polyreactivity
QVQLVESGGGLVQAGGSLRLSCAASGSTCVYYPMGWYRQAPGKERELVAAIRGRDGNTYYADSVKGRFTISRDNAQNTVYLQMNSLKPEDSAVYSSAATRRNQLYGVAYRYDYWGQGTQVTVSS	high polyreactivity
QVQLVESGGGLVQAGCSLRLSCDASGFIFKVYAMGWYRQAPGKERELVASISFSGGRTYYADSVKGRFTISRDNAKNTFYLQMNSLKPEDSAVYYCNRSYVNKYYSWGQGTQVTVSS	high polyreactivity
QVQLVESGGGLVQAGGSLRLSCAASGRIFLSNAMGWYRQAPGKERELVAAISLSGGRTYYADSVKGRFTISRDNAKNTVYLQMNSLKPEDTAVYYCAAEFYPIRYYGRYDYWGQGTQVTVSS	low polyreactivity
QVQLVESGGGLVQAGGSLRLSCAASGRIFNGYAMGWYRQAPGKERELVASITSAGSTYFADSVTGRVTISRDNAKNTVYVQMNRLKPEDTAVYYCAADSYSVYYYTYDSWGQGTQVTVSS	low polyreactivity

Q: Name the reported polyreactivity (PSR sort gate) value associated with the sequence QVQLVESGGGLVQAGGSLRLSCAASGSIFHGNAMGWYRQAPGKERELVAAITARGGRTYYADSVKGRFTISRDNAKNTVYLQMNSLKPEDTAVYYCNAVHRYERDYWGQGTQVTVSS
A: high polyreactivity

Q: And QVQLVESGAGLVQAGGSLRLSCAASGSIFEYYAMGWYRQAPGKERELVAAISSGGPTYYADSVKGRFTISRDNAKNTVYLQMNSLKPEDTAVYYCNAALRYPDYDYWGQGTQVTVSS ?
A: low polyreactivity

Q: Another: QVQLVESGGGLVQAGGSLRLSCAASGSTFTANAMGWYRQAPGKERELVASISARDGSTYADSVKGRFTISRDNAKKTVYLQMNSLKPEDTAVYYCNAAYFHIFPYDYDYWGQGTQVTVSS
A: low polyreactivity

Q: Please give the result for QVQLVESGGRLVQAGGSLRLSCAASGSTFGWYTMGWYRQAPGKERELVAAITSRGTRTSYADSVKARFTISRDNAKNTVYLQMNSLKPEDTAVYYCAARVFRGLGEYYWGQGTQVTVSS too.
A: high polyreactivity

Q: What do we get for QVQLVESGGGLVQAGGSLRLSCAASGFTFGPYDMGWYRQAPGKERELVAVIIGGDSTNYADSVKGRFTISRDNAKNSVYLQMNSLKPEDTAVYYCAADYIDRVGWMDYWGQGTQVTVSS ?
A: low polyreactivity

Q: Again, but for QVQLVESGGGLVQAGGSLRLSCAPSAFTFKYYSMGWYRHTPGKESELVAVISWSGGSTYYADSVKGRFTISRDYAKNTVYLHMNSQKPEDTAVYYCAAYERKFYTVSRWYKLDYWGQGTQVTVSS
A: high polyreactivity

---

Assay: yeast display, Sf9 membrane polyspecificity reagent, FACS + sequencing; frameworks hold sequencing errors
METRIC: polyreactivity (PSR sort gate)

The examples below pair each entry with its known result.
SEQ	METRIC	VALUE MEASURED
QVQLVETGRGLVQAGGSLRLSCAASGGTFVVYSMGWYRQAPGTERELVAAITWIGDSTYYADSVKRRFTISRDNAKNTVYVQMNSLNPEDTAVYYCNKAKLYLVGRARFQTNYGLYDFWGQVTQVTVSS	polyreactivity (PSR sort gate)	low polyreactivity
QVQLVESGGGLVQAGGSLRLSCAASGSIFPGNTMGWYRQAPGKERELVAVITKRGGRTYYADSVKGRFTISRDNAKNTVYLQMNSLKPEDTAVYYCARAPSYSTGVSIRDYWGQGTQVTVSS	polyreactivity (PSR sort gate)	high polyreactivity
QVQLVESVGGLVQAGGSLRLSCAASGRTFGRYAMGWYRQAPGKERELVAGISRSGDSTHYADSVKGRFTISRDNAKNTVYLQMNSLKPEDTAVYYCNKETPTNGARKYEYWGQGTQVTVSS	polyreactivity (PSR sort gate)	low polyreactivity
QVQLVESGGGLVQAGGSLRLSCAASGSTFRFYALGWSRQAPGKERELVAAINGSGGSTYYADSVKGRFTISRDNAKNTVYLQMNSLKPEDTAVYYCAATYYILYTSWDEYWGQGTQVTVSS	polyreactivity (PSR sort gate)	low polyreactivity

# context switch: different sequence, same polyreactivity (PSR sort gate)
Q: I would be grateful if you could share the reported polyreactivity (PSR sort gate) for QVQLVESGGGLVQAGGSLRLSCAASGRIFPVNAMGWYRQAPGKEREFVARISRRGGSTYYADSVKGRFTISRDNAKNTVYLQMNSLKPEDTAVYYCAAVSSRYSYDYWGQGTQVTVSS .
A: high polyreactivity

---

Experiment: yeast display, Sf9 membrane polyspecificity reagent, FACS + sequencing; frameworks hold sequencing errors
METRIC: polyreactivity (PSR sort gate)

See these solved cases before continuing.
SEQ	polyreactivity (PSR sort gate)
QVQLVESGGGLVQAGGSLRLSCAASGIIFSVNAMGWYRQAPGTERELVAAISSSGGDTYYADSVKGRFTISRDNAKNTVYLQMNSLKPEDTAVYYCAASVEQPGLAYDYWGQGTQVTVSS	low polyreactivity
QVQLVESGGGLVQAGGSLRLSCAASGRTFSKYAMGWYRQAPGKERELVAAISSTGGSTYYADSVKGRFTISRDNAKNTVYLQMNSLIPEDTAVYYCATEVYWFHSRAYYYWGQGSQVTVSS	high polyreactivity
QVQLVESGGGLVQAGGSLRLSCAASGSIFRYYVMGWYRQAPGKERELVASISYSVGRTYYADSVKGRFTISRDNAKNTVYLQMNSLKPEVTAVYYCAADRYWPYYSAYYTSYRMDYWGKGTQVTVSS	high polyreactivity
QVQLVESGGGLVQAGGSLRSSCAATGRTFYYNGMGWYRQAPGKERELVATITNGGSTNYADSVKGRFTISRDNAKNTVYLQMNSLKPEDTAVSYCAKTLASDCYDYWGQGTQVTVSS	low polyreactivity

Turning now to a further record.
Q: Recorded polyreactivity (PSR sort gate) for QVHLVESGGGLVQAGGSLRLSCAASGFIFGYNARGWYRQAPAKERELVAAINWSGGRTYYADSVKGRFTISRDIAKNTVYLQMNSLKPEVTAVSYCNADGSRRYNYWGQGSQVTVSS , please?
A: low polyreactivity

---

Test: yeast display, Sf9 membrane polyspecificity reagent, FACS + sequencing; frameworks hold sequencing errors
METRIC: polyreactivity (PSR sort gate)

SEQ	VALUE MEASURED
QVQLVESGGGLVQAGGSLRLSCAASGRIFVGYAMGWYRQAPGKERELVAAINRSGSSKYYADSVKGRFTISRDNAKNTVYLQMNSLKTEDTAVYYCNARSGNRYGPRYDYWGQGTQVTVSS	high polyreactivity
QVQLVESGGGLVQAGGSLRLRCAASGFIFAWDAMGWYRQAPGKERELVATISGSGGRTYYADSVKGRFPISRDNAKNTVYLQMISLKPEETAVYYCATRAQGTSWYRTSKYDYWGQGTQVIVSS	high polyreactivity

---

Test: yeast display, Sf9 membrane polyspecificity reagent, FACS + sequencing; frameworks hold sequencing errors
METRIC: polyreactivity (PSR sort gate)

// solved cases for polyreactivity (PSR sort gate) follow
SEQ	polyreactivity (PSR sort gate)
QDQLVETGGGLVQAGGSLRLSCAASGSTFAYYTMGWYRPAPGKERELVAAISSGGITYYAYSVKGRFTISRDNAKNTVYLQMNSLKPEDTAVYYCAAYRTHGPPRAIRFDYWGQGTQVTVSS	high polyreactivity
QVQLVESGGGLVQAGGSLRLSCAASGRTLGPNAMGWYRQAPGKERELVAAISWSGGSTYYADSVKGRFTISRDNAKNTVYLQMNSLKPEDTAVYYCAAEWYWVYYVPYEYWGQGTQVTVSS	low polyreactivity
QVQLVESGGGLVQAGGSLRLSWAASGSTLSLYAMGWYRQAPGKERELVAAITSSGGTYYADSVKGRFTISRDNAKNTVYLQMNSLKPEVTAVYYCNAYAKDARSYGYHRVNYWGQGTQVTVSS	high polyreactivity
QVQLVESGGGLVQAGGSLRLSCAASGSIFVYNDMGWYRQAPGKERELVAGIDWSGDRTYADSVKGRFTISRDNAKYTVYLQMNSLKPEDTAVYYCNAERYPYRLRARKLDYWGQGTQVTVSS	low polyreactivity

Here's the next entry for you.
Q: Requested read-out: polyreactivity (PSR sort gate). Entry: QVQLVESGGGLVQAGGRLLLSCAASGSTFDAYAMGWYRQAPGKERELVAAITNGGSTYYADSVKGRFTISRDNAKNTVYFQMNCLKPEDTAVYYCNAQHRTVWGIFGRFNYWGLGTQVTVSS
A: low polyreactivity

Where these numbers come from: the nanobody polyreactivity screen of Harvey et al. (2022)
